experiment: Selectivity index, ratio of CC50 for African green monkey Vero cells to IC50 for human Caco2 cells; type: toxicity; settings: Vero cells (CC50) and Caco2 cells (IC50)
Measured endpoint: selectivity ratio
Answers are plain numbers.

Data point: O=C1C(=O)c2ccccc2C2=C1CC(c1cn(-c3ccccc3)nn1)O2 (stereo unspecified) ; selectivity ratio = 6.25

---

experiment: Cytotoxicity against African green monkey Vero cells assessed as cell viability after 48 hrs by MTT assay relative to control; format: cell-based; details: chlorocebus sabaeus
Measured endpoint: CC50 at 48 h (µM)
One number for each entry, in µM.

Data point: O=C1C(=O)c2ccccc2C2=C1CC(c1cn(-c3ccccc3)nn1)O2 (stereo unspecified) ; CC50 at 48 h = 28

The reported numbers originate from ChEMBL document CHEMBL4270562.
